Test system: Three Amp^r E. coli
Assay: MIC assessment, summary for the three strains
Assay type: cell-based, Escherichia coli
Settings: E. coli CA-1, CA-4 and CA-20 together

[
  {
    "cpdSmiles": "CC(=O)NC[C@H]1CN(c2ccc(N3CCOCC3)c(F)c2)C(=O)O1",
    "resistance phenotype from MIC, in words": "resistant"
  },
  {
    "cpdSmiles": "CC[C@H]1OC(=O)[C@H](C)[C@@H](O[C@H]2C[C@@](C)(OC)[C@@H](O)[C@H](C)O2)[C@H](C)[C@@H](O[C@@H]2O[C@H](C)C[C@H](N(C)C)[C@H]2O)[C@](C)(O)C[C@@H](C)C(=O)[C@H](C)[C@@H](O)[C@]1(C)O",
    "resistance phenotype from MIC, in words": "resistant"
  },
  {
    "cpdSmiles": "CCCCCCCCCC(=O)N[C@@H](Cc1c[nH]c2ccccc12)C(=O)N[C@H](CC(N)=O)C(=O)N[C@@H](CC(=O)O)C(=O)N[C@@H]1C(=O)NCC(=O)N[C@@H](CCCN)C(=O)N[C@@H](CC(=O)O)C(=O)N[C@H](C)C(=O)N[C@@H](CC(=O)O)C(=O)NCC(=O)N[C@H](CO)C(=O)N[C@@H]([C@H](C)CC(=O)O)C(=O)N[C@@H](CC(=O)c2ccccc2N)C(=O)O[C@@H]1C",
    "resistance phenotype from MIC, in words": "resistant"
  },
  {
    "cpdSmiles": "CN[C@H](CC(C)C)C(=O)N[C@H]1C(=O)N[C@@H](CC(N)=O)C(=O)N[C@H]2C(=O)N[C@H]3C(=O)N[C@H](C(=O)N[C@H](C(=O)O)c4cc(O)cc(O)c4-c4cc3ccc4O)[C@H](O)c3ccc(c(Cl)c3)Oc3cc2cc(c3O[C@@H]2O[C@H](CO)[C@@H](O)[C@H](O)[C@H]2O[C@H]2C[C@](C)(N)[C@H](O)[C@H](C)O2)Oc2ccc(cc2Cl)[C@H]1O",
    "resistance phenotype from MIC, in words": "resistant"
  }
]
